System: BV-173 (Chronic Myelogenous Leukemia)
Assay: Bliss excess, mean over the matrix (fraction); higher = more synergy;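 further: after 72 h of two-drug dosing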
readout.kind: Bliss excess
Answers are plain numbers.

Examples from the recorded data:
>  <compound>
COc1nnc2ccc(N3CCC(c4ccc(OCCN5CCN(C)C(=O)[C@H]5C)cc4)CC3)nn12 [AZD5153] + CCN(CCO)CCCOc1ccc2c(Nc3cc(CC(=O)Nc4cccc(F)c4)[nH]n3)ncnc2c1 [AZD2811] (first compound max 1 µM, 7x7, partner max 1 µM)

>  <Bliss excess>
-0.0561

$$$$
>  <compound>
CN(CCO)CC[C@H](CSc1ccccc1)Nc1ccc(S(=O)(=O)NC(=O)c2ccc(N3CCC([C@@H](O)c4ccccc4-c4ccc(Cl)cc4)CC3)cc2)cc1S(=O)(=O)C(F)(F)F [AZD4320] + C1CN(CCC1(C(=O)N[C@@H](CCO)C2=CC=C(C=C2)Cl)N)C3=NC=NC4=C3C=CN4 [Capivasertib] (first compound max 1 µM, 7x7, partner max 3 µM)

>  <Bliss excess>
-0.0135

$$$$

# return Bliss excess for each item in the list
1. CN(CCO)CC[C@H](CSc1ccccc1)Nc1ccc(S(=O)(=O)NC(=O)c2ccc(N3CCC([C@@H](O)c4ccccc4-c4ccc(Cl)cc4)CC3)cc2)cc1S(=O)(=O)C(F)(F)F [AZD4320] + C[C@@H](Nc1cc(F)cc(F)c1)c1cc(C(=O)N(C)C)cc2c(=O)cc(N3CCOCC3)oc12 [AZD8186] (first compound max 1 µM, 7x7, partner max 3 µM)
2. COc1cccc2c1C(=O)c1c(O)c3c(c(O)c1C2=O)C[C@@](O)(C(=O)CO)C[C@@H]3O[C@H]1C[C@H](N)[C@H](O)[C@H](C)O1 [Doxorubicin] + Cc1cc2ncnn2cc1Nc1ncc2c(n1)n(C1CCOCC1)c(=O)n2C [AZD7648] (first compound max 1 µM, 7x7, partner max 10 µM)
3. COc1cc2ncnc(Nc3ccc(F)c(Cl)c3)c2cc1OCCCN1CCOCC1 [Gefitinib] + CC(C)n1c(=O)n(C)c2cnc3cc(F)c(-c4ccc(OCCCN5CCCCC5)nc4)cc3c21 [AZD1390] (first compound max 10 µM, 7x7, partner max 0.3 µM)
4. CC(=O)c1c(C)c2cnc(Nc3ccc(N4CCNCC4)cn3)nc2n(C2CCCC2)c1=O [Palbociclib] + CC1(C)CCC(CN2CCN(c3ccc(C(=O)NS(=O)(=O)c4ccc(NCC5CCOCC5)c([N+](=O)[O-])c4)c(Oc4cnc5[nH]ccc5c4)c3)CC2)=C(c2ccc(Cl)cc2)C1 [Venetoclax] (first compound max 10 µM, 7x7, partner max 1 µM)

Return:
[0.0166, 0.0953, -0.0778, 0.0021]

----------
System: LOU-NH91 (Squamous Cell Lung Carcinoma)
Experiment: Bliss excess, mean over the matrix (fraction); higher = more synergy
For each record, write down the corresponding Bliss excess.
One number for each entry.

>  <molecule>
C=CCn1c(=O)c2cnc(Nc3ccc(N4CCN(C)CC4)cc3)nc2n1-c1cccc(C(C)(C)O)n1 [AZD1775] + C[C@@H]1COCCN1C2=NC(=NC(=C2)C3(CC3)[S@](=N)(=O)C)C4=C5C=CNC5=NC=C4 [AZD6738] (first compound max 1 µM, partner max 10 µM)

>  <test.target>
LOU-NH91 (Squamous Cell Lung Carcinoma)

>  <recorded.measurement>
-0.0111

$$$$
>  <molecule>
COc1nnc2ccc(N3CCC(c4ccc(OCCN5CCN(C)C(=O)[C@H]5C)cc4)CC3)nn12 [AZD5153] + C=CCn1c(=O)c2cnc(Nc3ccc(N4CCN(C)CC4)cc3)nc2n1-c1cccc(C(C)(C)O)n1 [AZD1775] (first compound max 1 µM, partner max 1 µM)

>  <test.target>
LOU-NH91 (Squamous Cell Lung Carcinoma)

>  <recorded.measurement>
0.0216

$$$$

Now for the molecule whose Bliss excess we want.
Item CC1(C)CCC(CN2CCN(c3ccc(C(=O)NS(=O)(=O)c4ccc(NCC5CCOCC5)c([N+](=O)[O-])c4)c(Oc4cnc5[nH]ccc5c4)c3)CC2)=C(c2ccc(Cl)cc2)C1 [Venetoclax] + C[C@@H]1COCCN1C2=NC(=NC(=C2)C3(CC3)[S@](=N)(=O)C)C4=C5C=CNC5=NC=C4 [AZD6738] (first compound max 1 µM, 7x7, partner max 10 µM) was tested on LOU-NH91 (Squamous Cell Lung Carcinoma); the reported Bliss excess is -0.0023
